Hello, the source for this data is patent EP2373335B1, in case you need it.

Biological target: T1, human ferroportin 1 (human, UniProt Q9NP59 1-571)
T1 sequence: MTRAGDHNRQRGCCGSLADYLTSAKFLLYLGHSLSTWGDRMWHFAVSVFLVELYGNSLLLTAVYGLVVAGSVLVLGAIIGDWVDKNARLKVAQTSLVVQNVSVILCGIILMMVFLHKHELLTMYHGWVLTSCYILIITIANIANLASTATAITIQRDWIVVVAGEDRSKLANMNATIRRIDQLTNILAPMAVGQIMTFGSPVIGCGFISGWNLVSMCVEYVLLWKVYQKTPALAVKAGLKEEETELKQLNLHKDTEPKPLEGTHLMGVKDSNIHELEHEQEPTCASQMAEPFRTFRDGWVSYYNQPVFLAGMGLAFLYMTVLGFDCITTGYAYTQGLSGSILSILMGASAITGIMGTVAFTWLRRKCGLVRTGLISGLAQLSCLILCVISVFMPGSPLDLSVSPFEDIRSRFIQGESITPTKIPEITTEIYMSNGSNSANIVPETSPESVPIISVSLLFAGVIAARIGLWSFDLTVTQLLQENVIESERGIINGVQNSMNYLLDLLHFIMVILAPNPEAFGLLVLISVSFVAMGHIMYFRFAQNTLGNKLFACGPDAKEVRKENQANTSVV
Experiment: cell-based or functional assay
EC50 (nM); inhibition of hepcidin induced ferritin increase in Caco-2 cells overview
Your answer is read as nM, so omit the unit and give the number.

Data point: Mab 4A10-3 (antibody, human IgG4 S228P, kappa, F234A L235A, V domains shown) VH: QVQLVQSGAEVKKPGSSVKVSCKASGYAFTSFLIEWVRQAPGQGLEWMGTSNPRTGGRKYKEKFRGRVTITADKSTSTAYMELSSLRSEDTAVYYCAREFFDYWGQGTTVTVSS VL: DIQMTQSPSSLSASVGDRVTITCRASKSISKYTAWYQQKPGKAPKLLIYAGSKLHWGVPSRFSGSGSGTDFTLTISSLQPEDFATYYCQQHNEYPYTFGGGTKVEIKR ; EC50 (nM); inhibition of hepcidin induced ferritin increase in Caco-2 cells = 37

Field EC50 (nM); inhibition of hepcidin induced ferritin increase in Caco-2 cells (entry Mab 3D8 (antibody, human IgG4 S228P, kappa, F234A L235A, V domains shown) VH: QVQLVQSGAEVKKPGSSVKVSCKASGYAFTSFLIEWVRQAPGQGLEWMGTSNPRTGGTKYKEKFRGRVTITADKSTSTAYMELSSLRSEDTAVYYCAREFFDYWGQGTTVTVSS VL: DIQMTQSPSSLSASVGDRVTITCRASKSISKYTAWYQQKPGKAPKLLIYAGSKLHSGVPSRFSGSGSGTDFTLTISSLQPEDFATYYCQQHNEYPYTFGGGTKVEIKR ) reads 360

Record Mab L2.2-4 (antibody, human IgG4 S228P, kappa, F234A L235A, V domains shown) VH: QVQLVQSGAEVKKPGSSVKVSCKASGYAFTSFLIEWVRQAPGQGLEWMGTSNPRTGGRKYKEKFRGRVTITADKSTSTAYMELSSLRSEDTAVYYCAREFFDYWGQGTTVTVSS VL: DIQMTQSPSSLSASVGDRVTITCRASKSISKYTAWYQQKPGKAPKLLIYAGSKLRSGVPSRFSGSGSGTDFTLTISSLQPEDFATYYCQQHNEYPYTFGGGTKVEIKR , field EC50 (nM); inhibition of hepcidin induced ferritin increase in Caco-2 cells: 193

We now examine a further binder.
// EC50 (nM); inhibition of hepcidin induced ferritin increase in Caco-2 cells lookup, binder = Mab Combi11 (antibody, human IgG4 S228P, kappa, F234A L235A, V domains shown) VH: QVQLVQSGAEVKKPGSSVKVSCKASGYAFTSFLIEWVRQAPGQGLEWMGTSNPRTGRTKYKSKFRGRVTITADKSTSTAYMELSSLRSEDTAVYYCAREFFDYWGQGTTVTVSS VL: DIQMTQSPSSLSASVGDRVTITCRASKSISKYTAWYQQKPGKAPKLLIYAGSKRHWGVPSRFSGSGSGTDFTLTISSLQPEDFATYYCQQHNEYPYTFGGGTKVEIKR , result: 28
